target: Vps34 (Homo sapiens, UniProt Q8NEB9); assay: Kinase Glo Luminescent Kinase Assay (Kglo), assay C; assay type: biochemical; conditions: read-out: Assay C VPS34 IC50
Sequence (Q8NEB9 whole entry, species assumed): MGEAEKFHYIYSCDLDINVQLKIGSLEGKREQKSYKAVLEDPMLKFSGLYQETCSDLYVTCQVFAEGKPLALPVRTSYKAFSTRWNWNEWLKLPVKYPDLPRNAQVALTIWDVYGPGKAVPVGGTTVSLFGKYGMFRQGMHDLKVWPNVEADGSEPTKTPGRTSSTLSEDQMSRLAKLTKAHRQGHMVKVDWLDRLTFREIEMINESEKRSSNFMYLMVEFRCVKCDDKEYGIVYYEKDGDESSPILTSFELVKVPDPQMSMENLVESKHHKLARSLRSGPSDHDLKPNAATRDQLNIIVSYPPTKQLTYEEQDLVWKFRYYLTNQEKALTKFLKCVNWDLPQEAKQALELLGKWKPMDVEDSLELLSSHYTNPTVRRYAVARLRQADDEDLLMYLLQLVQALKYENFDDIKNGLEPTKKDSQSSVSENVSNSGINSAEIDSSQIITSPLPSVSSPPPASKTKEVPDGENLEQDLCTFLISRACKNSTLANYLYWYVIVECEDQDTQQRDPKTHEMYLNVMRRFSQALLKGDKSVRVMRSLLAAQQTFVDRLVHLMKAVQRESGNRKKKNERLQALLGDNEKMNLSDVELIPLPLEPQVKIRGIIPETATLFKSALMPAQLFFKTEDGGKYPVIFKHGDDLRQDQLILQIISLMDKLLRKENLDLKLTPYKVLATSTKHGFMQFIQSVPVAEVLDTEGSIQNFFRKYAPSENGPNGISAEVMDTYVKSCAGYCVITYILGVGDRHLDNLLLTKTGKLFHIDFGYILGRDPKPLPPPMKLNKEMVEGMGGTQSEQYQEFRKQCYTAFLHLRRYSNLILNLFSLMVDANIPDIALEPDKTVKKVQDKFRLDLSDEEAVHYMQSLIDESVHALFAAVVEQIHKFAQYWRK
pIC50: −log10 of the molar value.
ENDPOINT: pIC50

Some entries whose results are on file:
COMPOUND: Cc1cncc(-c2nc(-c3cc(S(=O)(=O)NCCC(C)(C)O)ccc3C)cnc2N)c1
STUDY_SYSTEM: Vps34 (Homo sapiens, UniProt Q8NEB9)
pIC50: < 5.04
//
COMPOUND: Cc1ccc(S(=O)(=O)N[C@H]2CC[C@](C)(O)CC2)cc1-c1cnc(N)c(-n2cncn2)n1 [Example 69a]
STUDY_SYSTEM: Vps34 (Homo sapiens, UniProt Q8NEB9)
pIC50: < 5.00
//
COMPOUND: Cc1cc(-c2nc(-c3cc(S(=O)(=O)NCCC(C)(C)O)ccc3C)cnc2N)on1
STUDY_SYSTEM: Vps34 (Homo sapiens, UniProt Q8NEB9)
pIC50: 5.47
//
COMPOUND: Cc1cc(-c2nc(-c3cc(S(=O)(=O)N[C@H]4CCC[C@@H]4N)ccc3C)cnc2N)ccn1
STUDY_SYSTEM: Vps34 (Homo sapiens, UniProt Q8NEB9)
pIC50: < 5.04

Identify the reported pIC50 for the following entry. Cc1ccc(S(=O)(=O)NCCC(C)(C)O)cc1-c1cnc(N)c(-c2cncnc2)n1
< 5.04

Identify the reported pIC50 for the following entry. Cc1ccc(S(=O)(=O)NC2CCSC2=O)cc1-c1cnc(N)c(-n2cncn2)n1 (centres unmarked)
< 5.00

Identify the reported pIC50 for the following entry. Cc1nc(-c2nc(-c3cc(S(=O)(=O)NCCC(C)(C)O)ccc3C)cnc2N)cs1
< 5.04

Identify the reported pIC50 for the following entry. Cc1ccc(S(=O)(=O)NCCC(C)(C)O)cc1-c1cnc(N)c(-c2cccnc2Cl)n1
5.10

* * *

# Lookup of reported Assay M RLM CI(int) keyed by entry
assay: Microsomal clearance assay (M); details: intrinsic clearance in rat liver microsomes
Your answer should be a plain number; it is taken to be in µL/min/mg.

Some entries whose results are on file:
COMPOUND: CCN1CCC[C@@H]1CNS(=O)(=O)c1ccc(C)c(-c2cnc(N)c(-c3cnc(C)s3)n2)c1
UNIT_TEXT: µL/min/mg
Assay M RLM CI(int): 314

COMPOUND: Cc1ccc(S(=O)(=O)NCC2COCCN2C)cc1-c1cnc(N)c(-c2cn(C)nc2C)n1 (stereo not shown)
UNIT_TEXT: µL/min/mg
Assay M RLM CI(int): 27

COMPOUND: Cc1cc(-c2nc(-c3cc(S(=O)(=O)NCCC(C)(O)C(F)(F)F)ccc3C)cnc2N)ccn1 (stereo not shown)
UNIT_TEXT: µL/min/mg
Assay M RLM CI(int): 170

Identify the reported Assay M RLM CI(int) for the following entry. Cc1ccc(S(=O)(=O)NCCC(C)(C)O)cc1-c1cnc(N)c(-c2cnn(CCC(C)C)c2)n1
380

Identify the reported Assay M RLM CI(int) for the following entry. CCn1cc(-c2nc(-c3cc(S(=O)(=O)NCCC(C)(C)O)ccc3C)cnc2N)cn1
49

Identify the reported Assay M RLM CI(int) for the following entry. Cc1ccc(-c2nc(-c3cc(S(=O)(=O)NCCC(C)(C)O)ccc3C)cnc2N)s1
137

Identify the reported Assay M RLM CI(int) for the following entry. Cc1ccc(S(=O)(=O)NC2CC3(CC(O)C3)C2)cc1-c1cnc(N)c(-c2cn(C)nc2C)n1 (single isomer, unassigned) [Example 9a]
34

* * *

target: PI 3-kinase beta (Homo sapiens, UniProt P42338); assay: Kinase Glo Luminescent Kinase Assay (Kglo), assay B; assay type: biochemical; conditions: read-out: Assay B PI3Kβ IC50
Sequence (P42338 whole entry): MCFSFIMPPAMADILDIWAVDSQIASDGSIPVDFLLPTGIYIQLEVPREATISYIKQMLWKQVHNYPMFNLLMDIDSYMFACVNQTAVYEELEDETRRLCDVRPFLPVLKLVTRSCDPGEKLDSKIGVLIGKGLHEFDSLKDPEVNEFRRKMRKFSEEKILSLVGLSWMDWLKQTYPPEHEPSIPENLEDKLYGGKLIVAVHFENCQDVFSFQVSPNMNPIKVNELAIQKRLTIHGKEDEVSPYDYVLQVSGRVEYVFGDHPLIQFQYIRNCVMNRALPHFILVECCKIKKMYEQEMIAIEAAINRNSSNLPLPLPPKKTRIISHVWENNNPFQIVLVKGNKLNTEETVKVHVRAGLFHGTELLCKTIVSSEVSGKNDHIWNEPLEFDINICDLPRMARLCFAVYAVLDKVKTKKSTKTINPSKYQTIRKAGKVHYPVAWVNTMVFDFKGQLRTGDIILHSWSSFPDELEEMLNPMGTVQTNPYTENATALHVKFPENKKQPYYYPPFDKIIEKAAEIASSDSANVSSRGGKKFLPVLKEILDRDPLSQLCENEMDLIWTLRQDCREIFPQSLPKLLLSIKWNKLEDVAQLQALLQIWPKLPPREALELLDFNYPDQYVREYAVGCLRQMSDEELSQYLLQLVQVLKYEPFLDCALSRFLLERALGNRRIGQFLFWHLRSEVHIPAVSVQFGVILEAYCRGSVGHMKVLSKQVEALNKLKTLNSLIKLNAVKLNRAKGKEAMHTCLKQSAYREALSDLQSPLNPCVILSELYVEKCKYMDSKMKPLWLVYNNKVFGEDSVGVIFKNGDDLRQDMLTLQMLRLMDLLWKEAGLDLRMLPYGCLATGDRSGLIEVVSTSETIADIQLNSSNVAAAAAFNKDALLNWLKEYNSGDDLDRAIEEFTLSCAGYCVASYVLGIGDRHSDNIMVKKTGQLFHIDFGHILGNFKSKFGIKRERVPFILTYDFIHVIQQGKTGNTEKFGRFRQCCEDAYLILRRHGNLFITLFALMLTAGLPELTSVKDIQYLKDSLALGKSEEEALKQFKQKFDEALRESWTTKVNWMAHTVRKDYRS
Sequence (P27986 461-568 partner): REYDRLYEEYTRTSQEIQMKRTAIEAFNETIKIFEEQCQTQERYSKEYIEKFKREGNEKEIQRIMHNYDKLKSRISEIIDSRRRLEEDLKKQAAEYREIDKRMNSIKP
ENDPOINT: pIC50
# pIC50: negative log10 of molar concentration; output just the value

Some entries whose results are on file:
MOLECULE: Cc1ccc(S(=O)(=O)NCC2(O)CCCCC2)cc1-c1cnc(N)c(-n2cncn2)n1 [Example 127.11]
pIC50: 5.89

MOLECULE: Cc1ccc(S(=O)(=O)NCC(C)(C)CO)cc1-c1cnc(N)c(-c2cc(C3CC3)no2)n1 [Example 99]
pIC50: 5.78

MOLECULE: Cc1ccc(S(=O)(=O)NCCC(C)(O)C(F)(F)F)cc1-c1cnc(N)c(-n2cncn2)n1 (stereo not shown) [Example 127.24]
pIC50: 6.10

MOLECULE: Cc1ccc(S(=O)(=O)NCCC(C)(C)O)cc1-c1cnc(N)c(-c2cnn(CCC(C)C)c2)n1 [Example 119.26]
pIC50: 5.41

MOLECULE: Cc1ccc(S(=O)(=O)NCC(C)(C)O)cc1-c1cnc(N)c(-c2cnn(CCN(C)C)c2)n1 [Example 142]
pIC50: 5.22

MOLECULE: Cc1ccc(S(=O)(=O)N2CC3(CC(O)C3)C2)cc1-c1cnc(N)c(-n2cncn2)n1 [Example 101]
pIC50: 5.77

Identify the reported pIC50 for the following entry. Cc1ccc(S(=O)(=O)NCC(C)(C)N2CCOCC2)cc1-c1cnc(N)c(-n2cncn2)n1 [Example 127.32]
5.34

Identify the reported pIC50 for the following entry. Cc1ncc(-c2nc(-c3cc(S(=O)(=O)NCC(C)(C)O)ccc3C)cnc2N)s1 [Example 7]
6.00

Identify the reported pIC50 for the following entry. Cc1noc(-c2nc(-c3cc(S(=O)(=O)NC[C@H]4C[C@@H](O)C4)ccc3C)cnc2N)n1 [Example 96]
5.47

Identify the reported pIC50 for the following entry. Cc1ccc(S(=O)(=O)N[C@H]2CC[C@H](O)CC2)cc1-c1cnc(N)c(-n2cccn2)n1 [Example 103]
5.73

* * *

molecular target: PI 4-kinase beta (Homo sapiens); assay: Kinase Glo Luminescent Kinase Assay (Kglo), assay D; type: biochemical; conditions: read-out: Assay D PI4Kβ IC50
Sequence (Q9UBF8 whole entry): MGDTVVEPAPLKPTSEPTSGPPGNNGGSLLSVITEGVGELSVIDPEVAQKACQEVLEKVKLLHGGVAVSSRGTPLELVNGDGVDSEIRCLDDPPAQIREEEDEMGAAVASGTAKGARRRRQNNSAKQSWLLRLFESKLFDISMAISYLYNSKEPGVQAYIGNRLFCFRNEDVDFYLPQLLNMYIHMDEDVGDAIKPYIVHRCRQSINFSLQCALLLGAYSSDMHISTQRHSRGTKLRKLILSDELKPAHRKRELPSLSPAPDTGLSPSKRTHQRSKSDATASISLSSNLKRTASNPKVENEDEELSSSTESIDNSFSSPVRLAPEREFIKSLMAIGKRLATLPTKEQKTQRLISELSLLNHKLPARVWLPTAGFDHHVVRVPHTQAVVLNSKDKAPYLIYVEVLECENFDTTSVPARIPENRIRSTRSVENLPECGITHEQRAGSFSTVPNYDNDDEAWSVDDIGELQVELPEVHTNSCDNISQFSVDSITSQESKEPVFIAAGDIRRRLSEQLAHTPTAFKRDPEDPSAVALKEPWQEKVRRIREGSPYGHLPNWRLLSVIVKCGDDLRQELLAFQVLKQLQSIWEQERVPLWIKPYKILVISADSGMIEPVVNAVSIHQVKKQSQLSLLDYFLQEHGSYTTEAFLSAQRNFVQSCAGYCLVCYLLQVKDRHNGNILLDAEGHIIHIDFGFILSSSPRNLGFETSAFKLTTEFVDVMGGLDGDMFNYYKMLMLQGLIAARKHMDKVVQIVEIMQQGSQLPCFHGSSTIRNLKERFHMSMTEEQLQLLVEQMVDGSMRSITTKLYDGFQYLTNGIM
ENDPOINT: pIC50
# pIC50: negative log10 of molar concentration; output just the value

COMPOUND: Cc1ncc(-c2nc(-c3cc(S(=O)(=O)NCC(C)(C)CO)ccc3C)cnc2N)s1
STUDY_SYSTEM: PI 4-kinase beta (Homo sapiens)
EXPERIMENTAL_VALUE: 5.71
//
COMPOUND: Cc1ccc(S(=O)(=O)N2CCC(F)C2)cc1-c1cnc(N)c(-n2cncn2)n1 (centres unmarked)
STUDY_SYSTEM: PI 4-kinase beta (Homo sapiens)
EXPERIMENTAL_VALUE: 5.77
//
COMPOUND: Cc1ccc(S(=O)(=O)NOCC(C)(C)O)cc1-c1cnc(N)c(-n2cncn2)n1
STUDY_SYSTEM: PI 4-kinase beta (Homo sapiens)
EXPERIMENTAL_VALUE: 5.36
//
COMPOUND: Cc1ccc(S(=O)(=O)NC2CC(F)(F)C2)cc1-c1cnc(N)c(-n2cncn2)n1
STUDY_SYSTEM: PI 4-kinase beta (Homo sapiens)
EXPERIMENTAL_VALUE: 5.20

# next compound below
Identify the reported pIC50 for the following entry. CCONS(=O)(=O)c1ccc(C)c(-c2cnc(N)c(-n3cncn3)n2)c1
5.50

* * *

# Lookup of reported IC50 keyed by entry
molecular target: PI 3-kinase delta (Homo sapiens); assay: TR-FRET Adapta assay, assay F; details: read-out: Assay F PI3Kδ IC50
Sequence (O00329 whole entry): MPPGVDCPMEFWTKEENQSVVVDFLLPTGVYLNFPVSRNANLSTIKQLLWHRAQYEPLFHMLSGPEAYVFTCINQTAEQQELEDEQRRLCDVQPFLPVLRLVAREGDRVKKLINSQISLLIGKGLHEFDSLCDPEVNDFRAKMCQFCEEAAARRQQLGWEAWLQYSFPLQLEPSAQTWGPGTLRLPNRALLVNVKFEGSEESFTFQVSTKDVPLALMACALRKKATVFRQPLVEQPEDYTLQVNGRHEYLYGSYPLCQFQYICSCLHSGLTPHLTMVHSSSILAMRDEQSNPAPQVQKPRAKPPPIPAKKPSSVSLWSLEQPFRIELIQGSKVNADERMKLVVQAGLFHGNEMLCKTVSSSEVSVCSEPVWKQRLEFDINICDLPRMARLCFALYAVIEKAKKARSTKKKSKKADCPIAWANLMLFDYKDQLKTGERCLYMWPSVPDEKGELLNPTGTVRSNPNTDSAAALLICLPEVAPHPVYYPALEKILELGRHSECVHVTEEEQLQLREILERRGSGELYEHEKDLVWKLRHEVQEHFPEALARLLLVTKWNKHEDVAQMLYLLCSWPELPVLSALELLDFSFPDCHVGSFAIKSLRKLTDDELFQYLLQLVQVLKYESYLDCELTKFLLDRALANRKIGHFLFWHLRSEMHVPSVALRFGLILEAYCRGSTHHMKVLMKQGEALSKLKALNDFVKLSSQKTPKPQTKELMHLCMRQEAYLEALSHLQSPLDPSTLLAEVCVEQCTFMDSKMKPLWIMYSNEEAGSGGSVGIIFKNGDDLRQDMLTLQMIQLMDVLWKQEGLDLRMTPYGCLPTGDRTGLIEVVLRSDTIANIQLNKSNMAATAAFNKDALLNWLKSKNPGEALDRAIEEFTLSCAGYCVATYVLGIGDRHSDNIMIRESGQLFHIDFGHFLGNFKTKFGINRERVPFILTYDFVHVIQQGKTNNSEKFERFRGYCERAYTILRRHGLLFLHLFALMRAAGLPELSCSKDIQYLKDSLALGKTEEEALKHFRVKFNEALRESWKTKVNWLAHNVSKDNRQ
Sequence (P27986 461-568 partner): as the sequence (P27986 461-568 partner) above
Your answer should be a plain number; it is taken to be in nM.

Some entries whose results are on file:
SAMPLE_SMILES: Cc1ccc(S(=O)(=O)NCCC(C)(C)O)cc1-c1cnc(N)c(-c2ccnc(F)c2)n1
IC50 (nM): 100

SAMPLE_SMILES: Cc1ccc(S(=O)(=O)NCCC(C)(C)O)cc1-c1cnc(N)c(-c2ccc(N3CCOCC3)nc2)n1
IC50 (nM): 2180

SAMPLE_SMILES: Cc1ccc(S(=O)(=O)NCCC(C)(C)O)cc1-c1cnc(N)c(-c2cnc(Cl)cc2C)n1
IC50 (nM): 900

# next molecule below
Identify the reported IC50 for the following entry. Cc1ccc(S(=O)(=O)NCCC(C)(C)O)cc1-c1cnc(N)c(-c2ccc(CO)s2)n1
70

* * *

assay: Microsomal clearance assay (M); conditions: intrinsic clearance in rat liver microsomes
# Lookup of reported Assay M RLM CI(int) keyed by entry
Your answer should be a plain number; it is taken to be in µL/min/mg.

Some entries whose results are on file:
MOLECULE: Cc1ccc(S(=O)(=O)NCC2(C)COC2)cc1-c1cnc(N)c(-n2cncn2)n1 [Example 29]
EXPERIMENTAL_VALUE: 62
//
MOLECULE: Cc1ccc(S(=O)(=O)NCC2(CO)COC2)cc1-c1cnc(N)c(-n2cncn2)n1 [Example 35]
EXPERIMENTAL_VALUE: 25
//
MOLECULE: Cc1ncc(-c2nc(-c3cc(S(=O)(=O)NCC(C)(C)O)ccc3C)cnc2N)o1 [Example 126]
EXPERIMENTAL_VALUE: 20

Identify the reported Assay M RLM CI(int) for the following entry. Cc1ccc(S(=O)(=O)NCCC(C)(C)O)cc1-c1cnc(N)c(-c2ccc(CO)s2)n1 [Example 119.35]
78
